# ASSAY_SYSTEM: NLRP3 inflammasome (Mus musculus)
# Construct: endogenous in cells; host or cells: primary mouse bone marrow-derived dendritic cells (BMDCs), LPS-primed
# EXPERIMENT: IL-1β release from LPS-primed BMDCs (ELISA) as readout of NLRP3 inflammasome activation
# Format: cell-based
# MEASUREMENT_PARAMETERS: compound 50 μM; LPS-primed BMDCs
EXPERIMENTAL_READOUT: Average IL-1β (ng/mL)
The response must be a number in ng/mL with no trailing unit.

N#Cc1ccc(NC(=O)Nc2ccccc2)cc1 ... 0.140
O=C(Nc1ccccc1)Nc1ccc(NC(=O)c2ccco2)cc1 ... 0.073
O=C(Nc1ccccc1)Nc1ccc(N2CCCC2)cc1 ... 1.415

Now look at this one.
Record O=C(Nc1ccccc1)Nc1ccc(NC(=O)C2CCOC2)cc1 (stereo not shown) . Reported Average IL-1β: 1.091

###

Measured Average IL-1β accompanies every entry in the list below.
# ASSAY_SYSTEM: NLRP3 inflammasome (Mus musculus, UniProt Q8R4B8)
# Construct: endogenous in cells; host or cells: primary mouse bone marrow-derived dendritic cells (BMDCs), LPS-primed
# Sequence (Q8R4B8 whole entry): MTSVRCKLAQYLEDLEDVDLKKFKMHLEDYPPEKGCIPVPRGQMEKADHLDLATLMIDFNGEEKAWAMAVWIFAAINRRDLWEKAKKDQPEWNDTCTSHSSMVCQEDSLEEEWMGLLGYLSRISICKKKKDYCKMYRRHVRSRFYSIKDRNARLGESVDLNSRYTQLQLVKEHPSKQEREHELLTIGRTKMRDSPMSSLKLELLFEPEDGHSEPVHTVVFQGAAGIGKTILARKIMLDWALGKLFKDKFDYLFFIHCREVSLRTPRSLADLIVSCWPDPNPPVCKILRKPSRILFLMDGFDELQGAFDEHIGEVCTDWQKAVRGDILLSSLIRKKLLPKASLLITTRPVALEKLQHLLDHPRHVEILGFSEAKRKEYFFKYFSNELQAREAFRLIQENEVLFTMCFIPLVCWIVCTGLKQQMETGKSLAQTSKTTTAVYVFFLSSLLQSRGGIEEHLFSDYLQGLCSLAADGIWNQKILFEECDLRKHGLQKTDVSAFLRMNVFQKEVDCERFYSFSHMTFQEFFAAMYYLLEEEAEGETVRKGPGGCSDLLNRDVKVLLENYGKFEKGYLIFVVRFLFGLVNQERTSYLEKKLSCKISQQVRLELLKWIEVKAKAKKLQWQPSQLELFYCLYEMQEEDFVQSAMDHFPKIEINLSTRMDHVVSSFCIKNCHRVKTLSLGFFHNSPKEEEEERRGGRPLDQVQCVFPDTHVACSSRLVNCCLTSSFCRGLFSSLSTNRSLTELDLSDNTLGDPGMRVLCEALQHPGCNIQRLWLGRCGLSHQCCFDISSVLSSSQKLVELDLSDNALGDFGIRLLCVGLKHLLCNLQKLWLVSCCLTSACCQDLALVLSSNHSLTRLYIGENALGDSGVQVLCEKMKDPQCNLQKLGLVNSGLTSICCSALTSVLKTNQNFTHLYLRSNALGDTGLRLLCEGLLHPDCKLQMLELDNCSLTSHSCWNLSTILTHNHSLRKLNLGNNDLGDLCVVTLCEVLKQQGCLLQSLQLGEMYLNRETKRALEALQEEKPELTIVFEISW
# EXPERIMENT: IL-1β release from LPS-primed BMDCs (ELISA) as readout of NLRP3 inflammasome activation
# Format: cell-based
# MEASUREMENT_PARAMETERS: compound 50 μM; LPS-primed BMDCs
The response must be a number in ng/mL with no trailing unit.

O=C1CN(c2ccccc2)C(=O)N1Cc1nc(-c2ccco2)no1 ... 0.193
COc1cccc(C)c1NC(=O)NC(c1nc(-c2cccnc2)no1)C(C)C (stereo not drawn) ... 0.065
O=C(Nc1ccccc1)Nc1ccc(NC(=O)C(F)F)cc1 ... 0.778
O=C(NCc1nc(-c2cccnc2)no1)Nc1cccc2cnccc12 ... 0.082

Record "CC(C)=CC(=O)Nc1cccc(NC(=O)Nc2ccccc2)c1" . Reported Average IL-1β: 0.165

Record "O=C1CN(c2ccccc2)C(=O)N1Cc1nc(-c2ccc(Cl)cc2)no1" . Reported Average IL-1β: 0.300

###

# Tested on: BMDCs
# EXPERIMENT: LDH release (lytic cell death, pyroptosis) from LPS-primed BMDCs
# Type: cell-based, mouse
# MEASUREMENT_PARAMETERS: LDH release; compound 50 μM; positive control nigericin 5 μM
# Protocol: This was tested in cell culture in several different in vitro assays classically used to investigate inflammasome activation. […] Lytic cell death was determined via LDH release. […] For classification of the activity of a given molecule, release of IL-1β was quantified as % of IL-1% of a respective control activator used for the experiment (highlighted in tables with bold letters). […]
EXPERIMENTAL_READOUT: Average (% positive control)
The response must be a number in % positive control with no trailing unit.

Worked cases, Average (% positive control) given:
O=C(NCc1nc(-c2cccs2)no1)Nc1ccccc1 ... 9.562
Cc1cccc(-c2noc(CN3C(=O)CN(c4ccccc4)C3=O)n2)c1 ... 12.713
O=C(Nc1ccccc1)Nc1ccc(OC(F)(F)F)cc1 ... 19.349
CC(C)C(NC(=O)Nc1cccc(C(F)(F)F)c1)c1nc(-c2cccnc2)no1 (stereo not shown) ... 20.238
O=C(Nc1ccccc1)Nc1ccc(NC(=O)c2ccco2)cc1 ... 11.958

The reported BMDCs Average (% positive control) of CC(C)C(NC(=O)Nc1ccc(Cl)cc1)c1nc(-c2ccccc2)no1 (stereo not shown) is 51.271

The reported BMDCs Average (% positive control) of "Cc1cc(NC(=O)Nc2ccccc2)ccc1N1CCCC1" is 19.631
